Data origin, for the record: PubChem BioAssay (NCATS)

- Tested on: MCC-26
- protocol summary: qHTS assay to identify novel small-molecules to repurpose for Merkel cell carcinoma treatment (AID 1296009); also: nearly all actives have a fitted effect of over 60% in size
- test parameters: MCC and control cell lines, CellTiter-Glo viability, 72 h; series mostly up to 46 µM
Records with an inconclusive call do not appear. The source made the active and inactive calls. Calls follow the shape of the dose curve; as a rule, active = well fitted inhibition curve with a large enough effect; inconclusive = small, poorly fitted or top-dose-only effect; inactive = flat fitted curve, though single readings scatter.
Classes used: true for active, false for inactive

> print(dat)
                                    compound  category.label
 1  CC(CCc1ccc(O)cc1)NCCc1ccc(O)c(O)c1 (configuration not stated)           false
 2  COc1ccc2c(c1)c(CC(=O)O)c(C)n2C(=O)c1ccc(Cl)cc1           false
 3           CNCCCC12CCC(c3ccccc31)c1ccccc12           false
 4                         CN(C)C(=N)N=C(N)N           false
 5           C[C@](N)(Cc1ccc(O)c(O)c1)C(=O)O           false
 6  CC1(CN2CCC(n3c(=O)[nH]c4ccccc43)CC2)OCc2ccccc2-n2cccc21 (configuration not stated)           false
 7      CN1CCC(=C2c3ccccc3CC(=O)c3sccc32)CC1           false
 8  CCc1cccc2c3c([nH]c12)C(CC)(CC(=O)O)OCC3 (configuration not stated)           false
 9         CN(C)CCCN1c2ccccc2CCc2ccc(Cl)cc21           false
10    COC(=O)Nc1nc2ccc(C(=O)c3cccs3)cc2[nH]1            true
11  CC[N+](CC)(CC)CCOc1cccc(OCC[N+](CC)(CC)CC)c1OCC[N+](CC)(CC)CC           false
12                     NC12CC3CC(CC(C3)C1)C2           false
13                              NCCCCCC(=O)O           false
14  O=C(c1ccc(F)cc1)C1CCN(CCn2c(=O)[nH]c3ccccc3c2=O)CC1           false
15        NS(=O)(=O)c1cc2c(cc1Cl)NCNS2(=O)=O           false
16             Nc1nnc(-c2cccc(Cl)c2Cl)c(N)n1           false
17       N[C@@H](Cc1c[nH]c2ccc(O)cc12)C(=O)O           false
18  Cc1ccccc1N1C(=O)c2cc(S(N)(=O)=O)c(Cl)cc2NC1C (configuration not stated)           false
19                             NCCS(=O)(=O)O           false
20                   Nc1c2c(nc3ccccc13)CCCC2           false
21  COc1ccccc1N1CCN(CC(O)COc2cccc3ccccc23)CC1 (configuration not stated)           false
22  O=C1Cc2cc(CCN3CCN(c4nsc5ccccc45)CC3)c(Cl)cc2N1           false
23  Cc1cnc(C(=O)NCCc2ccc(S(=O)(=O)NC(=O)NC3CCCCC3)cc2)cn1           false
24  CC(C)(Oc1ccc(C2CC2(Cl)Cl)cc1)C(=O)O (configuration not stated)           false
25  CC(C)(C)C(=O)Oc1ccc(S(=O)(=O)Nc2ccccc2C(=O)NCC(=O)O)cc1           false
26  O=C1N(c2ccccc2)c2ccccc2C1(Cc1ccncc1)Cc1ccncc1           false
27  Cc1cn([C@H]2C=C[C@@H](CO)O2)c(=O)[nH]c1=O           false
28  O=C(Nc1ccc([N+](=O)[O-])cc1Cl)c1cc(Cl)ccc1O           false
29                   O=c1[nH]cc(F)c(=O)[nH]1           false
30       Cn1ccc2cc3c(cc21)CCN3C(=O)Nc1cccnc1           false
31  CS(=O)(=O)CCNCc1ccc(-c2ccc3ncnc(Nc4ccc(OCc5cccc(F)c5)c(Cl)c4)c3c2)o1           false
32  CC(C)C(=O)Nc1ccc([N+](=O)[O-])c(C(F)(F)F)c1           false
33  CCCNCC(O)COc1ccccc1C(=O)CCc1ccccc1 (configuration not stated)           false
34  COc1ccccc1OCCNCC(O)COc1cccc2[nH]c3ccccc3c12 (configuration not stated)           false
35       Nc1ccn([C@H]2CC[C@@H](CO)O2)c(=O)n1           false
36  COc1ccc(CCN(C)CCCC(C#N)(c2ccc(OC)c(OC)c2)C(C)C)cc1OC (configuration not stated)           false
37               CN(C)c1nc(N(C)C)nc(N(C)C)n1           false
38  COc1cc2nc(N3CCN(C(=O)c4ccco4)CC3)nc(N)c2cc1OC           false
39  CCCCc1oc2ccccc2c1C(=O)c1cc(I)c(OCCN(CC)CC)c(I)c1           false
40  Fc1ccc([C@@H]2CCNC[C@H]2COc2ccc3c(c2)OCO3)cc1           false
41                COc1nc(C)nc(Cl)c1NC1=NCCN1           false
42  COc1cc2c(c(OC)c1OC)-c1ccc(OC)c(=O)cc1[C@@H](NC(C)=O)CC2           false
43        Cc1cc(C(C)(C)C)c(O)c(C)c1CC1=NCCN1           false
44  CN(C)C(=O)C(CCN1CCC(O)(c2ccc(Cl)cc2)CC1)(c1ccccc1)c1ccccc1           false
45           Cc1cc(C(C)(C)C)cc(C)c1CC1=NCCN1           false
46  CC#C[C@]1(O)CC[C@H]2[C@@H]3CCC4=CC(=O)CCC4=C3[C@@H](c3ccc(N(C)C)cc3)C[C@@]21C           false
47  O=C(CCCN1CCC(O)(c2ccc(Cl)cc2)CC1)c1ccc(F)cc1           false
